- System: Erk1/2 phosphorylation
- test.summary: Erk1/2 Phosphorylation Assay (western blot), Panc-1
- Format: cell-based, human
- experimental.conditions: at 10 μM, * = activation
measured.endpoint: % inh of Erk1/2 phosphorylation in Panc-1

Previously resolved entries follow.
CO[C@@H]1CC[C@@H](Nc2nc(-c3nccn3C)nn3cc(-c4ccn(C)n4)c(C)c23)C1 (racemic) [Compound 132] ... 0 (0% inhibition)
Cc1c(-c2ccn(C)n2)cn2nc(-c3nccn3C)nc(Nc3ccc(C(C)(C)O)cn3)c12 [Compound 241] ... D* (85-100% activation)
COc1cc(Nc2nc(-c3nccn3C)nn3cc(-c4cccnc4)c(-c4ccccn4)c23)ncn1 [Compound 167] ... A (1-25% inhibition)
COc1cccc(-c2cn3nc(-c4nccn4C)nc(N[C@@H]4CC[C@@H](OC)C4)c3c2-c2ccccc2)c1Cl.Cl (racemic) [Compound 34] ... D (85-100% inhibition)
Cc1c(-c2ccn(C)n2)cn2nc(-c3nccn3C)nc(Nc3nccn3C)c12 [Compound 106] ... 0 (0% inhibition)

Incoming: Look up and report % inh of Erk1/2 phosphorylation in Panc-1, with Erk1/2 phosphorylation as system, for COc1cccc(-c2cn3nc(-c4nccn4C)nc(N[C@H]4C[C@H](OC)C4)c3c2-c2ccccc2)c1OC [Compound 219]
Outgoing: D (85-100% inhibition)

Incoming: Name the recorded % inh of Erk1/2 phosphorylation in Panc-1 of CCn1ccc(-c2cn3nc(-c4nccn4C)nc(Nc4cc(OC)ncn4)c3c2C)n1 [Compound 64] , assay system Erk1/2 phosphorylation.
Outgoing: A (1-25% inhibition)

Incoming: With Erk1/2 phosphorylation as the test system, provide measured % inh of Erk1/2 phosphorylation in Panc-1 for this molecule: CO[C@H]1CC[C@@H](Nc2nc(-c3nccn3C)nn3cc(-c4ccncc4)c(-c4ccccc4)c23)C1 (racemic) [Compound 200]
Outgoing: D* (85-100% activation)

Incoming: Please report % inh of Erk1/2 phosphorylation in Panc-1 with Erk1/2 phosphorylation for item Cc1c(-c2ccn(C)n2)cn2nc(-c3nccn3C)nc(Nc3ccc(N4CCOCC4)cn3)c12 [Compound 247] .
Outgoing: D* (85-100% activation)

Incoming: For Erk1/2 phosphorylation, give % inh of Erk1/2 phosphorylation in Panc-1 of the listed molecule: CO[C@H]1CC[C@@H](Nc2nc(-c3ccccn3)nn3cc(-c4ccn(C(C)C)n4)c(C)c23)C1 (racemic) [Compound 9]
Outgoing: 0 (0% inhibition)

Incoming: Report value only: % inh of Erk1/2 phosphorylation in Panc-1, Erk1/2 phosphorylation, COCCNc1nc(-c2nccn2C)nn2cc(-c3cccc(OC)c3Cl)c(-c3ccccc3)c12 [Compound 29]
Outgoing: D (85-100% inhibition)

Incoming: Look up and report measured % inh of Erk1/2 phosphorylation in Panc-1 (Erk1/2 phosphorylation) for the following molecule: Cc1c(-c2ccn(C)n2)cn2nc(-c3nccn3C)nc(Nc3cc(OCC(F)(F)F)ccn3)c12 [Compound 129]
Outgoing: D* (85-100% activation)

----------
- system: Rac-1 (Homo sapiens, UniProt P63000)
- Construct: made in house
- test.summary: Ras GTP Binding Domain Inhibition Assay (Ras Superfamily Assay)
- experimental.conditions: read-out: Rac-1: % inh.
measured.endpoint: inhibition at 20 µM

Incoming: Please indicate recorded inhibition at 20 µM of COc1cccc(-c2cn3nc(-c4nccn4C)nc(N[C@H]4C[C@H](OC)C4)c3c2-c2ccccc2)c1OC [Compound 219] measured with Rac-1 (Homo sapiens, UniProt P63000).
Outgoing: 1 to 25%

Incoming: Give reported inhibition at 20 µM for COCCCNC(=O)c1c(-c2ccn(C)n2)cn2nc(-c3nccn3C)nc(N[C@H]3CC[C@H](OC)C3)c12 (racemic) [Compound 184] (Rac-1 (Homo sapiens, UniProt P63000))
Outgoing: 1 to 25%

Incoming: Fetch value of inhibition at 20 µM on Rac-1 (Homo sapiens, UniProt P63000) for CO[C@H]1CC[C@@H](Nc2nc(-c3ccccn3)nn3cc(-c4ccn(C(C)C)n4)c(C)c23)C1 (racemic) [Compound 9] .
Outgoing: 0%

Incoming: Name the value of inhibition at 20 µM reported for Cc1c(-c2ccn(C)n2)cn2nc(-c3nccn3C)nc(-n3[nH]c(N)cc3=O)c12 [Compound 261] when tested on Rac-1 (Homo sapiens, UniProt P63000).
Outgoing: 76 to 100%

Incoming: Quote inhibition at 20 µM with test system Rac-1 (Homo sapiens, UniProt P63000) for Cc1c(-c2ccn(C)n2)cn2nc(-c3nccn3C)nc(Nc3cc(-c4ccncc4)[nH]n3)c12 [Compound 266]
Outgoing: 76 to 100%

Incoming: Provide inhibition at 20 µM, tested on Rac-1 (Homo sapiens, UniProt P63000), for Cc1ccc(Nc2nc(-c3nccn3C)nn3cc(-c4ccn(C)n4)c(C)c23)nc1 [Compound 226] .
Outgoing: 76 to 100%

Incoming: // fetch inhibition at 20 µM for COc1ccnc(Nc2nc(-c3nccn3C)nn3cc(-c4ccn(C)n4)c(C4CC4)c23)c1 [Compound 276] ; system: Rac-1 (Homo sapiens, UniProt P63000)
Outgoing: 76 to 100%

Incoming: Enter measured inhibition at 20 µM, system Rac-1 (Homo sapiens, UniProt P63000), for the molecule shown: CO[C@H]1CC[C@@H](Nc2nc(-c3nccn3C)nn3cc(-c4ccn(C(C)C)n4)c(C(C)C)c23)C1 (racemic) [Compound 36]
Outgoing: 0%

Incoming: Identify measured inhibition at 20 µM obtained with Rac-1 (Homo sapiens, UniProt P63000) for Cc1c(-c2ccn(C)n2)cn2nc(-c3nccn3C)nc(Oc3cc(N)[nH]n3)c12 [Compound 262] .
Outgoing: 50 to 75%
